Origin of measurements: BigSolDB 2.1

Settings: in n-hexanol, 333.15 K
Kindly supply the reported solubility (mole fraction) values for the records listed here.
Answers are plain numbers.

Each of the following entries comes with a recorded value; kindly state solubility (mole fraction) for each.
1. C[C@H](CCC(=O)O)[C@H]1CC[C@H]2[C@@H]3[C@H](O)C[C@@H]4C[C@H](O)CC[C@]4(C)[C@H]3C[C@H](O)[C@]12C
2. C[C@H](CCC(=O)O)[C@H]1CC[C@H]2[C@@H]3CC[C@@H]4C[C@H](O)CC[C@]4(C)[C@H]3C[C@H](O)[C@]12C

0.0236
0.0174

====

Conditions: in gamma-valerolactone, 293.15 K
recorded.endpoint: solubility (mole fraction)
Answers are plain numbers.

C[C@H](CCC(=O)O)[C@H]1CC[C@H]2[C@@H]3CC[C@@H]4C[C@H](O)CC[C@]4(C)[C@H]3C[C@H](O)[C@]12C | 0.00147

Endpoint output: solubility (mole fraction) of "C[C@H](CCC(=O)O)[C@H]1CC[C@H]2[C@@H]3[C@H](O)C[C@@H]4C[C@H](O)CC[C@]4(C)[C@H]3C[C@H](O)[C@]12C" . Value?
0.00154
